experiment: chemical genetic growth profiling, strain panel (AID 1159580);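 also: tested at 20 µM; growth read once vehicle control cultures reached saturation at 30 °C; 1 = growth at the plate median or of vehicle wells; lower values mean less growth of the strain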; conditions: S. cerevisiae deletion strains, growth OD, locus YKR091W, strain srl3, stronger effect = lower value
The whole screen tested about 5,500 compounds, of which about 2,000 (36%) were called active. Not shown: some 18% with an inconclusive outcome. This is one part of the list.
propertyLabel: normalized growth

>>> measuredresult("CC[C@@]1(C2O[C@@H](C3O[C@@](O)(CC)[C@H](C)C[C@@H]3C)C[C@@H]2C)CC[C@H]([C@]2(C)CCC3(C[C@H](O)[C@@H](C)[C@@H]([C@H](C)[C@@H](OC)[C@H](C)C(=O)O)O3)O2)O1 (stereo not given in full)")
0.999
>>> measuredresult("COc1ccccc1OCC(O)CN1CCN(CC(=O)Nc2c(C)cccc2C)CC1 (stereo not given)")
1
>>> measuredresult("NC(=O)c1ccc(N)nc1")
0.997
>>> measuredresult("CC1=C(/C=C/C(C)=C/C=C/C(C)=C/CO)C(C)(C)CCC1")
1.01
>>> measuredresult("COc1ccc(/C=C/C(=O)c2ccc(O)cc2O)cc1")
0.699
>>> measuredresult("CC1=C(/C=C/C(C)=C/C=C/C(C)=C/C=C/C=C(C)/C=C/C=C(C)/C=C/C2=C(C)CCCC2(C)C)C(C)(C)CCC1")
0.991
>>> measuredresult("CCCNC(C)C(=O)Nc1ccccc1C (stereo not given)")
1
>>> measuredresult("COc1cc(/C=C/C(=O)O)ccc1O")
1.01
>>> measuredresult("COc1ccc(/C=C/C(=O)c2cc(O)ccc2O)cc1")
0.593
>>> measuredresult("COc1ccc(/C=C/C(=O)O)cc1OC")
1.01

* * *

Below, each entry is listed alongside its reported normalized growth.
experiment: chemical genetic growth profiling, strain panel (AID 1159580);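 also: tested at 20 µM; growth read once vehicle control cultures reached saturation at 30 °C; 1 = growth at the plate median or of vehicle wells; lower values mean less growth of the strain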; settings: S. cerevisiae deletion strains, growth OD, locus YPL240C, strain hsp82, stronger effect = lower value
The campaign covered roughly 5,500 compounds. About 2,000 (36%) were called active. Not shown: some 18% with an inconclusive outcome. This is one part of the list.
propertyLabel: normalized growth

>>> measuredresult("CC[C@]12CCCN3CCc4c(n(c5ccccc45)C(=O)C1)[C@@H]32")
1
>>> measuredresult("Nc1nc(N)c2nc(CNc3ccc(C(=O)NC(CCC(=O)O)C(=O)O)cc3)cnc2n1 (configuration not stated)")
0.992
>>> measuredresult("CC[C@@H]1[C@@H](O)N2C3C[C@H]1C1C(O)[C@]4(C[C@@H]12)c1ccccc1N(C)[C@@H]34 (some centres not stated)")
1.02
>>> measuredresult("CN(C)CCCO[C@H]1[C@@H](C(O)CO)OC2OC(C)(C)O[C@@H]21 (some centres not stated)")
0.985
>>> measuredresult("O=C(O)CNCP(=O)(O)O")
1.02
>>> measuredresult("C[C@@H]1CC2C3CCC4=CC(=O)C=C[C@]4(C)[C@@]3(F)[C@@H](O)C[C@]2(C)[C@@]1(O)C(=O)COP(=O)(O)O (some centres not stated)")
0.976
>>> measuredresult("OC/C=C/c1ccc(O)c(O)c1")
0.995
>>> measuredresult("CC12CCC(CC1)C(C)(C)O2")
0.968
>>> measuredresult("NC(=O)N/N=C\\c1ccc([N+](=O)[O-])o1")
1.01
>>> measuredresult("Nc1nccs1")
0.994
>>> measuredresult("COc1cc2c(cc1O)CC1c3c(cc(O)c(OC)c3-2)CCN1C (configuration not stated)")
1.01
>>> measuredresult("CCn1cc(C(=O)O)c(=O)c2ccc(C)nc21")
0.931
>>> measuredresult("CC12CCC3C(CC=C4CC(O)CCC43C)C1CCC2=O (configuration not stated)")
1.01
>>> measuredresult("Oc1ccc(/C=C/c2cc(O)cc(O)c2)cc1")
0.988
>>> measuredresult("O=C1OCCN1/N=C\\c1ccc([N+](=O)[O-])o1")
1.01
>>> measuredresult("NC(=O)c1cnccn1")
0.979
>>> measuredresult("Nc1nc2c(c(=O)[nH]1)N(C=O)C(CNc1ccc(C(=O)N[C@@H](CCC(=O)O)C(=O)O)cc1)CN2 (some centres not stated)")
0.968
>>> measuredresult("CCOC(=O)C1=C[C@]2(CC)CCCN3CCc4c(n1c1ccccc41)[C@@H]32")
1.04
>>> measuredresult("CC[C@@]1(C2O[C@@H](C3O[C@@](O)(CC)[C@H](C)C[C@@H]3C)C[C@@H]2C)CC[C@H]([C@]2(C)CCC3(C[C@H](O)[C@@H](C)[C@@H]([C@H](C)[C@@H](OC)[C@H](C)C(=O)O)O3)O2)O1 (some centres not stated)")
1.04
>>> measuredresult("CCOP(=S)(OCC)Oc1ccc2c(C)c(Cl)c(=O)oc2c1")
0.95
>>> measuredresult("CCn1cc(C(=O)O)c(=O)c2cnc(N3CCNCC3)nc21")
1
>>> measuredresult("COc1ccc(C[C@H](N)C(=O)N[C@@H]2[C@@H](CO)OC(n3cnc4c(N(C)C)ncnc43)[C@@H]2O)cc1 (some centres not stated)")
0.986
